Test system: 90% gray hair
Measurement Protocol: ELISA hair-binding activity of biotinylated peptides on hair bundles
Parameters: species or system human
Cond: 20 μM biotinylated peptide in TBST and 1 mg/mL BSA, 1 hour at room temperature, 90% gray hair bundles, streptavidin-HRP detection; mean of at least three replicates
Please provide measured Hair A405 nm for the entries that follow.
Answers are plain numbers.

Example substances with recorded Hair A405 nm:
>  <Substance>
Gray3: positive control hair-binding peptide previously reported in U.S. Patent Application Publication No. 2006/0073111 (HDHKNQKETHQRHAA; Hair-binding peptide) [reference compound]

>  <Numeric Readout>
0.448

$$$$
>  <Substance>
SSNDSNVSWFHYYASGLTSSR-GSSG-SRKSSQKNPHHPKPPKKPTAR-GSSGK (biotin) [Aff15025]

>  <Numeric Readout>
0.86

$$$$

Alright, here's another substance for you.
The substance listed as VRPNLHRKAKAKPDHKQSENRKVPFYSH-GSSGK (biotin) [Aff15012] has a reported Hair A405 nm of 0.873
